Reported pIC50 values are given for each entry in this list.
# Experimental System: JAK3 (Homo sapiens, UniProt P52333)
# Construct: endogenous in cells; mixed lysate 1:2
# Sequence (P52333 whole entry): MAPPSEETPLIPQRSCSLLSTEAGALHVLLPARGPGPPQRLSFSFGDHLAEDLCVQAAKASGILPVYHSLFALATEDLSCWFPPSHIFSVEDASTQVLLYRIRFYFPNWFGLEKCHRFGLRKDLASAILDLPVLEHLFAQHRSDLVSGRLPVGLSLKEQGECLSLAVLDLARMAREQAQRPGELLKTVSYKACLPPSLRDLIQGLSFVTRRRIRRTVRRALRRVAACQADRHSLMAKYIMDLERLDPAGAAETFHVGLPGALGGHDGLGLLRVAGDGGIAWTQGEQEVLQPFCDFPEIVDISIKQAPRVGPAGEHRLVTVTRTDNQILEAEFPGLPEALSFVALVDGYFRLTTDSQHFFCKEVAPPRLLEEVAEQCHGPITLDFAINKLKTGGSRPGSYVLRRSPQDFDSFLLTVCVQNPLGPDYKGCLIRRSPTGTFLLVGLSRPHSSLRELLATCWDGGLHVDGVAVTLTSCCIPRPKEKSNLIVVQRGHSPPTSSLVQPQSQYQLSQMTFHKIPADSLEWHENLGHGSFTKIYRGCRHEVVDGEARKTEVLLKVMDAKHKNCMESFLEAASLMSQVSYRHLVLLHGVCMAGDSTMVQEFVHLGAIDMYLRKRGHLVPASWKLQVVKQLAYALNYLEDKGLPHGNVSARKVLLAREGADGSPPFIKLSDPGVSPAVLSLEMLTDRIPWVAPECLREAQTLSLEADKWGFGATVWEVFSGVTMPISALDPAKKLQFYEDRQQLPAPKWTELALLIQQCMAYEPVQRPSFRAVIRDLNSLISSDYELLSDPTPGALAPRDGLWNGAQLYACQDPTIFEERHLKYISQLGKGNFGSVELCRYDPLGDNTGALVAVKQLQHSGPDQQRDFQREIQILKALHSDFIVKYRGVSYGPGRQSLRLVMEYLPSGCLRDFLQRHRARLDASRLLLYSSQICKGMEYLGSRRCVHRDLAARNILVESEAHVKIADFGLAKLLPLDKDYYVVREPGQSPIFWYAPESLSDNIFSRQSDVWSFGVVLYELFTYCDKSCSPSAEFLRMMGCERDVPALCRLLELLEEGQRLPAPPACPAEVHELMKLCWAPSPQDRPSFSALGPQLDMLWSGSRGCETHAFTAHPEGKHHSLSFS
# Test Method Notes: Kinobeads assay with immunodetection, JAK3
# Reported Conditions: Kinobeads assay, mixed Molt4/Ramos lysate; read-out: Inhibition values (IC50) JAK3
pIC50: −log10 of the molar value.

Cn1cc(Nc2ncc(Cl)c(NC[C@@H]3CCCN3CCCS(C)(=O)=O)n2)cn1: 5.00 to 6.00
Cn1cc(Nc2ncc(Cl)c(NC[C@@H]3C[C@H](F)CN3CCS(C)(=O)=O)n2)cn1: > 7.00
CC(C)NC(=O)Cn1cc(Nc2nccc(NC[C@H]3CCCN3C(=O)CC#N)n2)cn1: 5.00 to 6.00
CC(=O)N1CCC[C@@H]1CNc1nc(Nc2cnn(C)c2)ncc1Cl: > 7.00
Cn1cc(Nc2ncc(Cl)c(NCC3CCOCC3)n2)cn1: 6.00 to 7.00
C=CS(=O)(=O)N1CCCC[C@@H]1CNc1nc(Nc2cnn(C)c2)ncc1Cl: > 7.00
Cn1cc(Nc2ncc(Cl)c(NC[C@H]3CCN(CCC#N)C3)n2)cn1: > 7.00
Cc1cnc(Nc2cnn(C)c2)nc1NC[C@@H]1CCCN1CCC#N: 6.00 to 7.00

For the compound Cl.Cn1cc(Nc2ncc(F)c(NC[C@@H]3CCCN3S(C)(=O)=O)n2)cn1 [Example 75, Hydrochloride] , what pIC50 is on record? 6.00 to 7.00

What about `CC(=O)N1CC[C@@H](CNc2nc(Nc3cnn(C)c3)ncc2Cl)C1` ? 5.00 to 6.00

Another: `Cn1cc(Nc2ncc(Cl)c(NC[C@H]3CCCN3S(C)(=O)=O)n2)cn1` > 7.00

Also `Cn1cc(Nc2ncc(Cl)c(NC[C@@H]3CCCN3CCS(C)(=O)=O)n2)cn1` ? 6.00 to 7.00

Follow-up item: `C=CS(=O)(=O)N1CC[C@@H](CNc2nc(Nc3cnn(C)c3)ncc2Cl)C1` > 7.00

====

# Experimental System: JAK2 (Homo sapiens, UniProt O60674)
# Construct: endogenous in cells; mixed lysate 1:2
# Sequence (O60674 whole entry): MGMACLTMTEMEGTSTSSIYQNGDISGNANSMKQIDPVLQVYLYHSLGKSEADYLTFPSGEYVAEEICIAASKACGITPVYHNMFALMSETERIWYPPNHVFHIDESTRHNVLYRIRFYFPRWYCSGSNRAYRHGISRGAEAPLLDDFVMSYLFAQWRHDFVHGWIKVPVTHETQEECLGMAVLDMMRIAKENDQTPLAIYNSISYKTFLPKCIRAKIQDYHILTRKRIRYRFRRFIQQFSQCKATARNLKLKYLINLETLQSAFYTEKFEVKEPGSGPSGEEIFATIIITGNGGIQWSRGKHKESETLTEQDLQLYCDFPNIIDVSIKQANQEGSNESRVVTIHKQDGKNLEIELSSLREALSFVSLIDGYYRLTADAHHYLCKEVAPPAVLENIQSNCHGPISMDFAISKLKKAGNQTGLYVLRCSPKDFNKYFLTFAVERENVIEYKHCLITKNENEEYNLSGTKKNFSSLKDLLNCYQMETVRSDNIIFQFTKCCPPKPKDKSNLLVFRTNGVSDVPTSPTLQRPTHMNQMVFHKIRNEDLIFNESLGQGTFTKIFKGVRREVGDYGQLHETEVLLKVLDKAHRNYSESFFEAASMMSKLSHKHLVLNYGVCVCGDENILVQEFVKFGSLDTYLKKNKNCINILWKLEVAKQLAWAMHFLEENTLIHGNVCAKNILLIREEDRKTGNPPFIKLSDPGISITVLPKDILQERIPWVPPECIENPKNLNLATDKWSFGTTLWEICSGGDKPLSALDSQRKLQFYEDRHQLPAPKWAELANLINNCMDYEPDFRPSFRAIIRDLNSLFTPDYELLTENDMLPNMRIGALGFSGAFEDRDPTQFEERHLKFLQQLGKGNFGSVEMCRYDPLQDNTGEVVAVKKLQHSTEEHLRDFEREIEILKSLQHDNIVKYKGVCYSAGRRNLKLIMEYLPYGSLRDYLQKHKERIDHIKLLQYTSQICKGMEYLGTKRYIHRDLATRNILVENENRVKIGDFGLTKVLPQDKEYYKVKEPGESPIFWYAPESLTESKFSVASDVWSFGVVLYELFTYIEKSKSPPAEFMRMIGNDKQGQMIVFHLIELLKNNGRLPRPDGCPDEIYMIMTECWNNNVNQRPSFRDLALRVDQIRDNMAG
# Test Method Notes: Kinobeads assay with immunodetection, JAK2
# Reported Conditions: mixed Molt4/Ramos lysate, read-out: Inhibition values (IC50) JAK2
pIC50: −log10 of the molar value. Structures can show the parent of a compound that is named as a salt.
Entries and their pIC50

C=CS(=O)(=O)N1CCC[C@H]1CNc1nc(Nc2cnn(CCO)c2)ncc1Cl [Example 15]: 6.00 to 7.00
Cn1cc(Nc2ncc(Cl)c(NC[C@H]3CCCN3CCNS(C)(=O)=O)n2)cn1 [Example 126]: 6.00 to 7.00
Cn1cc(Nc2ncc(Cl)c(NC[C@H]3CCCN3S(=O)(=O)C3CC3)n2)cn1 [Example 98]: 6.00 to 7.00
Cn1cc(Nc2ncc(Cl)c(NC[C@@H]3C[C@H](F)CN3CCCC#N)n2)cn1 [Example 133]: > 7.00
Cn1cc(Nc2ncc(Cl)c(NC[C@H]3CCCN3CCS(C)(=O)=O)n2)cn1 [Example 50]: 6.00 to 7.00
Cn1cc(Nc2ncc(Cl)c(NC[C@H]3CCCN3CCC#N)n2)cn1 [Example 49]: 6.00 to 7.00
Cn1cc(Nc2ncc(F)c(NC[C@H]3CCCN3)n2)cn1 [Example 70, Hydrochloride]: < 5.00
CN(C)CC(=O)N1CC[C@H](CNc2nc(Nc3cnn(C)c3)ncc2Cl)C1 [Example 59]: 5.00 to 6.00

Data request, read-out pIC50, for CN(C)C(=O)Cn1cc(Nc2ncc(Cl)c(NC[C@@H]3CCCN3)n2)cn1 [Example 66] < 5.00

Let us now turn to Cc1cnc(Nc2cnn(C)c2)nc1NC[C@H]1CCCN1C(=O)CC#N [Example 109] 6.00 to 7.00
